# Measured Target: aTNF-Fab (Fab fragment of anti-human TNFα monoclonal IgG, generic name Infliximab, product name Remicade)
# Protocol Text: SPR Biacore 3000, aTNF-Fab amine-coupled on CM5, peptide flowed, 25 °C, pH 7.4, 1:1 fit
Would you kindly list Ka for each of these binders?
Report only the number, with the unit M⁻¹ understood.

Give the measured Ka of GB1#-Cont.1d (designed binder) GPLGSTTYKLILNGKTLTGYTTAIAADAATAEIVLKQFANDNGIDGEWTYDDATKTFTVTE .
2.45e+06

Give the measured Ka of GB1#-D36V.1d (designed binder) GPLGSTTYKLILNGKTLTGYTTAIAADAATAEIVLKQFANVNGIDGEWTYDDATKTFTVTE .
510000

Give the measured Ka of GB1#-T17V.1d (designed binder) GPLGSTTYKLILNGKTLTGYTVAIAADAATAEIVLKQFANDNGIDGEWTYDDATKTFTVTE .
570000

Give the measured Ka of GB1#-T17A.1d (designed binder) GPLGSTTYKLILNGKTLTGYTAAIAADAATAEIVLKQFANDNGIDGEWTYDDATKTFTVTE .
880000
